Test system: Escherichia coli TOP10
Experiment: shrunken log2 fold change of peptide-encoding DNA abundance (4.5 h post-induction vs induction); higher = less antimicrobial activity (less host growth inhibition)
Conditions: time post-induction: 4.5 h; library: site-saturation at positions 5, 18, 19, 20
Decide using shrunken log2 fold change: a value greater than or equal to 0.1 is 1, a smaller one is 0.

See these solved cases before continuing.
Chain: RRIRCRPPRLPRPRPRPTTIPRP
Class label: 0
//
Chain: RRIRMRPPRLPRPRPRPDQYPRP
Class label: 0

Input line: Form field: shrunken log2 fold change at least 0.1? Entry: "RRIRNRPPRLPRPRPRPQFEPRP"
Output line: 0

Input line: Form field: shrunken log2 fold change at least 0.1? Entry: "RRIRRRPPRLPRPRPRPKEAPRP"
Output line: 0

Input line: Form field: shrunken log2 fold change at least 0.1? Entry: "RRIRMRPPRLPRPRPRPLMVPRP"
Output line: 1

Input line: Form field: shrunken log2 fold change at least 0.1? Entry: "RRIRERPPRLPRPRPRPIHVPRP"
Output line: 0

Input line: Form field: shrunken log2 fold change at least 0.1? Entry: "RRIRKRPPRLPRPRPRPWVMPRP"
Output line: 0

Input line: Form field: shrunken log2 fold change at least 0.1? Entry: "RRIRNRPPRLPRPRPRPPGPPRP"
Output line: 1

Input line: Form field: shrunken log2 fold change at least 0.1? Entry: "RRIRFRPPRLPRPRPRPKAQPRP"
Output line: 0

Input line: Form field: shrunken log2 fold change at least 0.1? Entry: "RRIRNRPPRLPRPRPRPCIHPRP"
Output line: 0

====

System: Escherichia coli TOP10
Assay: shrunken log2 fold change of peptide-encoding DNA abundance (4.5 h post-induction vs induction); higher = less antimicrobial activity (less host growth inhibition)
Conditions: time post-induction: 4.5 h; library: site-saturation at positions 5, 18, 19, 20
Endpoint: shrunken log2 fold change
Lab note: record the figure alone, no unit after it.

Use these answered entries as a reference point.
Chain: RRIRMRPPRLPRPRPRPRTLPRP
shrunken log2 fold change: 0.28
--
Chain: RRIRFRPPRLPRPRPRPNFCPRP
shrunken log2 fold change: 0.0651
--
Chain: RRIRKRPPRLPRPRPRPHQPPRP
shrunken log2 fold change: 0.413
--
Chain: RRIRCRPPRLPRPRPRPWRTPRP
shrunken log2 fold change: -0.166
--
Chain: RRIRIRPPRLPRPRPRPIPHPRP
shrunken log2 fold change: -0.297

Input line: Which measured shrunken log2 fold change value corresponds to "RRIRNRPPRLPRPRPRPWIMPRP" ?
Output line: -1.05

Input line: Which measured shrunken log2 fold change value corresponds to "RRIRTRPPRLPRPRPRPCSRPRP" ?
Output line: -0.182

Input line: Which measured shrunken log2 fold change value corresponds to "RRIRSRPPRLPRPRPRPENVPRP" ?
Output line: 0.0202

Input line: Which measured shrunken log2 fold change value corresponds to "RRIRERPPRLPRPRPRPFDRPRP" ?
Output line: -0.0163

Input line: Which measured shrunken log2 fold change value corresponds to "RRIRLRPPRLPRPRPRPVQAPRP" ?
Output line: -0.0131

Input line: Which measured shrunken log2 fold change value corresponds to "RRIRIRPPRLPRPRPRPDGKPRP" ?
Output line: -0.000921

Input line: Which measured shrunken log2 fold change value corresponds to "RRIRPRPPRLPRPRPRPFQKPRP" ?
Output line: -0.163

Input line: Which measured shrunken log2 fold change value corresponds to "RRIRFRPPRLPRPRPRPIDDPRP" ?
Output line: -0.548

Input line: Which measured shrunken log2 fold change value corresponds to "RRIRSRPPRLPRPRPRPRQPPRP" ?
Output line: 0.268

Input line: Which measured shrunken log2 fold change value corresponds to "RRIRSRPPRLPRPRPRPMEWPRP" ?
Output line: 0.199

Input line: Which measured shrunken log2 fold change value corresponds to "RRIRARPPRLPRPRPRPCWVPRP" ?
Output line: 0.237

Input line: Which measured shrunken log2 fold change value corresponds to "RRIRRRPPRLPRPRPRPLQVPRP" ?
Output line: 0.000182

Input line: Which measured shrunken log2 fold change value corresponds to "RRIRLRPPRLPRPRPRPTICPRP" ?
Output line: -0.176

Input line: Which measured shrunken log2 fold change value corresponds to "RRIRYRPPRLPRPRPRPHLGPRP" ?
Output line: 0.0406

Input line: Which measured shrunken log2 fold change value corresponds to "RRIRDRPPRLPRPRPRPLWDPRP" ?
Output line: -0.0822

Input line: Which measured shrunken log2 fold change value corresponds to "RRIRERPPRLPRPRPRPKDMPRP" ?
Output line: 0.00303

Input line: Which measured shrunken log2 fold change value corresponds to "RRIRERPPRLPRPRPRPENEPRP" ?
Output line: -0.0522

Input line: Which measured shrunken log2 fold change value corresponds to "RRIRHRPPRLPRPRPRPHHMPRP" ?
Output line: -0.324

====

Tested on: Escherichia coli TOP10
Assay: shrunken log2 fold change of peptide-encoding DNA abundance (4.5 h post-induction vs induction); higher = less antimicrobial activity (less host growth inhibition)
Settings: time post-induction: 4.5 h; library: site-saturation at positions 5, 18, 19, 20
Decide using shrunken log2 fold change: a value greater than or equal to -0.01 is 1.0, a smaller one is 0.0.

See these solved cases before continuing.
Chain: RRIRNRPPRLPRPRPRPGWEPRP
Class label: 1.0
//
Chain: RRIRGRPPRLPRPRPRPRLFPRP
Class label: 1.0
//
Chain: RRIRRRPPRLPRPRPRPFEWPRP
Class label: 0.0
//
Chain: RRIRDRPPRLPRPRPRPRSAPRP
Class label: 1.0
//
Chain: RRIRARPPRLPRPRPRPHTWPRP
Class label: 1.0
//
Chain: RRIRQRPPRLPRPRPRPNLGPRP
Class label: 1.0
//
Chain: RRIRSRPPRLPRPRPRPEKMPRP
Class label: 1.0
//
Chain: RRIRHRPPRLPRPRPRPQHCPRP
Class label: 0.0
//
Chain: RRIRIRPPRLPRPRPRPVALPRP
Class label: 0.0
//
Chain: RRIRIRPPRLPRPRPRPGGGPRP
Class label: 1.0

Input line: Form field: shrunken log2 fold change at least -0.01? Entry: "RRIRWRPPRLPRPRPRPNKRPRP"
Output line: 1.0

Input line: Form field: shrunken log2 fold change at least -0.01? Entry: "RRIRCRPPRLPRPRPRPIDRPRP"
Output line: 0.0

Input line: Form field: shrunken log2 fold change at least -0.01? Entry: "RRIRQRPPRLPRPRPRPYNHPRP"
Output line: 0.0

Input line: Form field: shrunken log2 fold change at least -0.01? Entry: "RRIRKRPPRLPRPRPRPCHGPRP"
Output line: 1.0

Input line: Form field: shrunken log2 fold change at least -0.01? Entry: "RRIRRRPPRLPRPRPRPHLHPRP"
Output line: 1.0

====

Tested on: Escherichia coli TOP10
Experiment: shrunken log2 fold change of peptide-encoding DNA abundance (4.5 h post-induction vs induction); higher = less antimicrobial activity (less host growth inhibition)
Settings: time post-induction: 4.5 h; library: site-saturation at positions 5, 18, 19, 20
Decide using shrunken log2 fold change: a value greater than or equal to -0.03 is 1.0, a smaller one is 0.0.

See these solved cases before continuing.
Chain: RRIRYRPPRLPRPRPRPPNIPRP
Class label: 0.0
--
Chain: RRIRFRPPRLPRPRPRPSYEPRP
Class label: 1.0
--
Chain: RRIRDRPPRLPRPRPRPVADPRP
Class label: 1.0
--
Chain: RRIRFRPPRLPRPRPRPRSFPRP
Class label: 0.0
--
Chain: RRIRPRPPRLPRPRPRPYCDPRP
Class label: 0.0

Input line: Form field: shrunken log2 fold change at least -0.03? Entry: "RRIRYRPPRLPRPRPRPTLIPRP"
Output line: 0.0

Input line: Form field: shrunken log2 fold change at least -0.03? Entry: "RRIRPRPPRLPRPRPRPWYGPRP"
Output line: 0.0

Input line: Form field: shrunken log2 fold change at least -0.03? Entry: "RRIRWRPPRLPRPRPRPLPLPRP"
Output line: 1.0

Input line: Form field: shrunken log2 fold change at least -0.03? Entry: "RRIRGRPPRLPRPRPRPTRLPRP"
Output line: 1.0

Input line: Form field: shrunken log2 fold change at least -0.03? Entry: "RRIRQRPPRLPRPRPRPMYNPRP"
Output line: 0.0

Input line: Form field: shrunken log2 fold change at least -0.03? Entry: "RRIRIRPPRLPRPRPRPMAMPRP"
Output line: 1.0

====

Test system: Escherichia coli TOP10;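 note: peptides expressed intracellularly from a pBAD plasmid library in pooled LB shake-flask culture, induced with 0.3% L-arabinose, DNA abundance read by NGS, three biological replicates, DESeq2 with apeglm shrinkage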
Experiment: shrunken log2 fold change of peptide-encoding DNA abundance (4.5 h post-induction vs induction); higher = less antimicrobial activity (less host growth inhibition)
Settings: time post-induction: 4.5 h; library: site-saturation at positions 5, 18, 19, 20
Decide using shrunken log2 fold change: a value greater than or equal to 0.02 is criterion met, a smaller one is criterion not met.

Chain: RRIRTRPPRLPRPRPRPKFCPRP
Class label: criterion met
//
Chain: RRIRKRPPRLPRPRPRPYFHPRP
Class label: criterion not met
//
Chain: RRIRCRPPRLPRPRPRPMEMPRP
Class label: criterion not met
//
Chain: RRIRMRPPRLPRPRPRPNERPRP
Class label: criterion met
//
Chain: RRIRGRPPRLPRPRPRPFEQPRP
Class label: criterion met
//
Chain: RRIRHRPPRLPRPRPRPKWYPRP
Class label: criterion not met
//
Chain: RRIRWRPPRLPRPRPRPGWVPRP
Class label: criterion met
//
Chain: RRIRTRPPRLPRPRPRPKDWPRP
Class label: criterion met
//
Chain: RRIRPRPPRLPRPRPRPCHLPRP
Class label: criterion not met
//
Chain: RRIRTRPPRLPRPRPRPLAHPRP
Class label: criterion not met

Please turn your attention to the following entry.
Input line: Form field: shrunken log2 fold change at least 0.02? Entry: "RRIRRRPPRLPRPRPRPMDEPRP"
Output line: criterion met

Origin of values: the supplement of paper PMC9112550
